Molecular target: cAMP and cAMP-inhibited cGMP 3',5'-cyclic phosphodiesterase 10A (Homo sapiens, UniProt Q9Y233)
Sequence (Q9Y233 whole entry): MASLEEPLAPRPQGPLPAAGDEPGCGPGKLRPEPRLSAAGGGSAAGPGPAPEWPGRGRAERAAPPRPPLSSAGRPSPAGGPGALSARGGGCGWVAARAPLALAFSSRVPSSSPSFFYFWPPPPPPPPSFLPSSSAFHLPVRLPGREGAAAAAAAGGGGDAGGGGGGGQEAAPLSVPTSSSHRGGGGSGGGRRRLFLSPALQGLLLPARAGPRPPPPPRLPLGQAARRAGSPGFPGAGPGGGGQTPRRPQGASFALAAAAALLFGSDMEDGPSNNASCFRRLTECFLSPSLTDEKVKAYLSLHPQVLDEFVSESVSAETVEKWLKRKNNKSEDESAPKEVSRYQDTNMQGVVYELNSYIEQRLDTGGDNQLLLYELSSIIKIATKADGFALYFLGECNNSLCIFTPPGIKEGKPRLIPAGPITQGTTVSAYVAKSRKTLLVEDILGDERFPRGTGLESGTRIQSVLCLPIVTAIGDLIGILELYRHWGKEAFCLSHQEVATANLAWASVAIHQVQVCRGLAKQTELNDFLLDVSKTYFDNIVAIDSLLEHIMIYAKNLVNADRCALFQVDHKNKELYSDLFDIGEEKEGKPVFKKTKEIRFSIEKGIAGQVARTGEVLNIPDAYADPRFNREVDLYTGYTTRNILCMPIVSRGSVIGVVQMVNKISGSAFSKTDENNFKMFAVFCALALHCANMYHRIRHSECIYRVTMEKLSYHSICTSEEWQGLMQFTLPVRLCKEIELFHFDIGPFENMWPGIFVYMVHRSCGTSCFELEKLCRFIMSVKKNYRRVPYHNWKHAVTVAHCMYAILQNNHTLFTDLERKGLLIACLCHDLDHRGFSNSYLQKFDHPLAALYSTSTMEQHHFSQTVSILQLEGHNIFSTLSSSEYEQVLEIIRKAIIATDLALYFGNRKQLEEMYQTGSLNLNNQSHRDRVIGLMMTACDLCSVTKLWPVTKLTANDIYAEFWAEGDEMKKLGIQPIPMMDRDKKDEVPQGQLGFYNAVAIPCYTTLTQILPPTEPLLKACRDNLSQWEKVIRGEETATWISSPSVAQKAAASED
pIC50: −log10 of the molar value.
measurementLabel: pIC50

Field: example entries. Status: answers known.
>>> recordedresult("CN(C(=O)c1ccc(OCc2ccc3ccccc3n2)cc1)c1ccc2nccn2c1")
6.89
>>> recordedresult("CN(C(=O)c1ccc(OCc2ccc3ccccc3n2)cc1)c1ccc2ncoc2c1")
7.03
>>> recordedresult("Cc1cccc(COc2ccc(N(C)C(=O)c3ccc4ncsc4c3)cc2)n1")
5.80

A = CCCCN(C(=O)c1ccncc1)c1ccc(OCc2ccc3ccccc3n2)cc1
B = CN(C(=O)c1cnc(-c2ccncc2)s1)c1ccc(OCc2ccc3ccccc3n2)cc1
C = CN(C(=O)c1ccncc1)c1ccc(OCc2cn3ccccc3n2)cc1
[ask] Put the compounds in ascending order of pIC50. The reply should contain the labels ordered as requested.
[reply] C, A, B

I = CN(C(=O)c1ccncc1)c1ccc(OCc2ccc3ccccc3n2)cc1
II = CN(C(=O)c1ccc2ncsc2c1)c1ccc(OCc2nc3ccccc3o2)cc1
[ask] Endpoint returns whichever of I and II has the numerically higher pIC50. Choose, then provide that item's label.
[reply] I

I = CN(C(=O)c1cc(-c2ccncc2)n[nH]1)c1ccc(OCc2ccc3ccccc3n2)cc1
II = CN(C(=O)c1ccc(OCc2ccc3ccccc3n2)cc1)c1ccccc1
[ask] Endpoint returns whichever of I and II has the numerically higher pIC50. Choose, then provide that item's label.
[reply] I

----------
Target: cGMP-dependent 3',5'-cyclic phosphodiesterase (Homo sapiens) (UniProt O00408)
Sequence (O00408 whole entry): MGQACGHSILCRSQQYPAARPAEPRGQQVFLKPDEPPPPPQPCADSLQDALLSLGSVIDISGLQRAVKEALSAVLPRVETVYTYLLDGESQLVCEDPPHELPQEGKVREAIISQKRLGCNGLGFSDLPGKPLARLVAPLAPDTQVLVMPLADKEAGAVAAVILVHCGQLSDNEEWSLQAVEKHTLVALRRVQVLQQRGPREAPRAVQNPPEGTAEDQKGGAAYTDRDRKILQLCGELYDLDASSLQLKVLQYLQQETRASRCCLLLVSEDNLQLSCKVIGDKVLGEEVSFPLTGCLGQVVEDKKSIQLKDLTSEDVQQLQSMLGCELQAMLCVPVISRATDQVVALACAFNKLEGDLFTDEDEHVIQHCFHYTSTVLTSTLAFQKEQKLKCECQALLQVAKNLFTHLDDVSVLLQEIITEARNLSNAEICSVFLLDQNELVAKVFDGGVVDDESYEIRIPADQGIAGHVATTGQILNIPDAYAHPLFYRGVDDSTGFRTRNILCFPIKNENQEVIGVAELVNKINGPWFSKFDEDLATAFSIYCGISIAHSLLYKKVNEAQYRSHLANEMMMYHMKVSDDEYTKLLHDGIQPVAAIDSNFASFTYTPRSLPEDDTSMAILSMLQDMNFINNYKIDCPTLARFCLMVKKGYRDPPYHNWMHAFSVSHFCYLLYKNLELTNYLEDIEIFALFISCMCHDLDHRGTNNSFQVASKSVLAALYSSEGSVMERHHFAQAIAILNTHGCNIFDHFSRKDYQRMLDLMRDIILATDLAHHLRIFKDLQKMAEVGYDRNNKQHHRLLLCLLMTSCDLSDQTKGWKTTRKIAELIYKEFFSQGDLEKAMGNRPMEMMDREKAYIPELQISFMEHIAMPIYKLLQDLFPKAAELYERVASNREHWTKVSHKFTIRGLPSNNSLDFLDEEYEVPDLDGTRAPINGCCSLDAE
Assay: Inhibition of PDE2 (unknown origin) at 2 uM
measurementLabel: inhibition (%)

Field: example entries. Status: answers known.
>>> recordedresult("CN(C(=O)c1ccncc1)c1ccc(OCc2ccc3ccccc3n2)cc1")
14
>>> recordedresult("CN(C(=O)c1cc(-c2ccccn2)n[nH]1)c1ccc(OCc2ccc3ccccc3n2)cc1")
12

P = CN(C(=O)c1ccc(OCc2ccc3ccccc3n2)cc1)c1ccc2ncsc2c1
Q = CN(C(=O)c1ccc2ncsc2c1)c1ccc(OCc2ccc3ccccc3n2)cc1
[ask] Endpoint returns whichever of P and Q has the numerically higher inhibition. Choose, then provide that item's label.
[reply] P
(P: 15%, Q: 1%)

----------
Target: cAMP and cAMP-inhibited cGMP 3',5'-cyclic phosphodiesterase 10A (Homo sapiens, UniProt Q9Y233)
Test: Inhibition of PDE10A (unknown origin) at 2 uM
measurementLabel: inhibition (%)

Field: example entries. Status: answers known.
>>> recordedresult("CN(C(=O)c1ccc(OCc2ccc3ccccc3n2)cc1)c1ccc2ncoc2c1")
105
>>> recordedresult("CN(C(=O)c1ccc(-n2ccnc2)cc1)c1ccc(OCc2ccc3ccccc3n2)cc1")
98
>>> recordedresult("CN(C(=O)c1ccc(OCc2ccc3ccccc3n2)cc1)c1ccc2ncsc2c1")
105
>>> recordedresult("CN(C(=O)c1ccccn1)c1ccc(OCc2ccc3ccccc3n2)cc1")
27
>>> recordedresult("CN(C(=O)c1cc(-c2ccncc2)n[nH]1)c1ccc(OCc2ccc3ccccc3n2)cc1")
99

a = CN(C(=O)c1ccccc1)c1ccc(OCc2ccc3ccccc3n2)cc1
b = O=C(Nc1ccc(OCc2ccc3ccccc3n2)cc1)c1ccncc1
[ask] Endpoint returns whichever of a and b has the numerically higher inhibition. Choose, then provide that item's label.
[reply] a

----------
Molecular target: cAMP and cAMP-inhibited cGMP 3',5'-cyclic phosphodiesterase 10A (Homo sapiens, UniProt Q9Y233)
pIC50: −log10 of the molar value.
measurementLabel: pIC50

Field: example entries. Status: answers known.
>>> recordedresult("CN(C(=O)c1ccc(OCc2ccc3ccccc3n2)cc1)c1ccc2ncsc2c1")
7.80
>>> recordedresult("CN(C(=O)c1ccc(OCc2ccc3ccccc3n2)cc1)c1ccncc1")
6.85
>>> recordedresult("CCN(C(=O)c1ccncc1)c1ccc(OCc2ccc3ccccc3n2)cc1")
6.12

P = CN(C(=O)c1ccccc1)c1ccc(OCc2ccc3ccccc3n2)cc1
Q = CN(C(=O)c1ccc2ncsc2c1)c1ccc(OCc2ccc3ccccc3n2)cc1
R = CN(C(=O)c1ccc(OCc2ccc3ccccc3n2)cc1)c1ccc2ncnn2c1
[ask] Put the compounds in ascending order of pIC50. The reply should contain the labels ordered as requested.
[reply] P, R, Q
